Molecular target: human-derived monoamine oxidase B (Homo sapiens, UniProt P27338)
Sequence (P27338 1-520): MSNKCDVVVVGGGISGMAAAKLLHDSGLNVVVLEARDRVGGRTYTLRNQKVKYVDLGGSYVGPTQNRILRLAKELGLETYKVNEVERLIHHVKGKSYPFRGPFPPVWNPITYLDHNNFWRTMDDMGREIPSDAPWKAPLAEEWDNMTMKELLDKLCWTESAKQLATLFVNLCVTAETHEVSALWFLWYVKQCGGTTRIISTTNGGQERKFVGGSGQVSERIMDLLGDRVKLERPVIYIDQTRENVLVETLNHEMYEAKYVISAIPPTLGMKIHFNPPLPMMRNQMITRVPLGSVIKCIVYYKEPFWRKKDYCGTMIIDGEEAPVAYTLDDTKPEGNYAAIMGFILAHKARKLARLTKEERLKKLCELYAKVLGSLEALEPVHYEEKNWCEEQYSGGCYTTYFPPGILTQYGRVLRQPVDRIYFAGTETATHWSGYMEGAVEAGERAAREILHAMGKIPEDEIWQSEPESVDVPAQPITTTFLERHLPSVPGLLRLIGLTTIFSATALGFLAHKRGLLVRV
pIC50: −log10 of the molar value.
PROPERTY: pIC50

I = COc1ccc(-c2ccc(CN[C@@H](C)C(N)=O)cc2)cc1 [Example 13, methanesulfonate]
II = C[C@H](NCc1ccc(-c2cccc(OC(F)(F)F)c2)cc1)C(N)=O [Example 10, methanesulfonate]
III = CC(C)[C@@H](NCc1ccc(-c2ccc(C(F)(F)F)cc2)cc1)C(N)=O [Example 17, methanesulfonate]
Problem: Put the above entries in order of falling pIC50. Respond with the label ranking, as requested.
Solution: II, I, III
(II: 6.67, I: 5.97, III: 5.39)

----------
Biological target: UniProt P27338
Sequence (P27338 1-520): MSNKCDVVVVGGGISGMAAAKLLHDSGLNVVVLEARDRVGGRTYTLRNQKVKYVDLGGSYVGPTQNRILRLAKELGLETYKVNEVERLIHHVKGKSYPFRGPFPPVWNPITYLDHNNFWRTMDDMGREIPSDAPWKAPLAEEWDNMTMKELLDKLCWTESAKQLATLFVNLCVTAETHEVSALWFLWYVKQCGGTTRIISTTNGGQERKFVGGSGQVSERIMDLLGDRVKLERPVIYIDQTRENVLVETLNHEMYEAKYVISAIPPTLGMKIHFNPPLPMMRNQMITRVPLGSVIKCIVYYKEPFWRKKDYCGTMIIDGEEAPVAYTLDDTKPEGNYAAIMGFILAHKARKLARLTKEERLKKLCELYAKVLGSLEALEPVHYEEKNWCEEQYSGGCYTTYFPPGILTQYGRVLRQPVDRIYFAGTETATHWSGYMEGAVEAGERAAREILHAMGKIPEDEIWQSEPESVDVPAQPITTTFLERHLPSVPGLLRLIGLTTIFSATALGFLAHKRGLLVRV
pIC50: −log10 of the molar value.
PROPERTY: pIC50

CC(C)C[C@@H](NCc1ccc(-c2ccc(C(F)(F)F)cc2)cc1)C(N)=O [Example 18, methanesulfonate]    5.28

a = COc1cccc(-c2ccc(CN[C@@H](C)C(N)=O)cc2)c1 [Example 12, methanesulfonate]
b = C[C@H](NCc1ccc(-c2ccc(OC(F)(F)F)cc2)cc1)C(N)=O [Example 11, methanesulfonate]
Problem: Task for the reader: decide whether a or b has the larger pIC50. Your choice should be expressed through its label.
Solution: b
(b: 7.01, a: 5.48)
